- experimental target: human ATP Binding Cassette Subfamily C Member 1 (ABCC1) (UniProt P33527 1-1531)
- experiment: FACS titration on C6-hC1 cells
Give measured pKd for each item. Keep answers brief.
One number for each entry, as −log10 of the molar value.

{"binder": "C1.773 (antibody, V domains shown) VH: EIQLAQSGPELVKPGASVKMSCKASGYSFIGYFMNWVKQSHGKSLEWIGRINPYNGDTFYNQKFKGKATLTVDKSSSTAHMELRSLTSEDSALYYCTRSGWGYDVYSFDYWGQGTLVTVSS VL: DIQMTQTPSSLSASLGDRVTISCRASQDISNYLNWYQQKPDGTVKLLIYYTSRLHSGVPSRFSGSGSGTDYSLTISNLEQEDIATYFCQQGNTLPWTFGGGTKLEIK", "pKd": 8.43}
{"binder": "C1.863 (antibody, V domains shown) VH: EVQRKESGPGLVQPSQTLSLTCTVSGFSLTNNGVSWVRQPPGKGLEWIAAISSGGSIYYNSAFKSRLSISRITSKSQVLLKMNSLQTEDTAMYFCARHRGYYGYNWGYFDYWGQGVMVTVSS VL: NIQMTQSPSLLSASVGDRVTLSCKGSQNIYNYLAWYQQKLGEAPKLLIYKTSSLQAGIPSRFSGSGSDTDYTLTISSLHSEDLATYYCCQYNNGYTFGAGTKLEIK", "pKd": 7.93}

# batch size: 2; output pKd per entry
1. C1.787a (antibody, V domains shown) VH: EVQLTESGPGLVQPSQTLSLTCTVSGFSLTSNGVSWVRQPPGKGLEWIAAISSGGSTYYNSAFKSRLSISRHTSKSQVLLNMNSLQTEDTAMYFCARHRGYYWSNWGYFDYWGQGVMVTVSS VL: NIQLTQSPSLLSASVGDRVTLSCKGSQNINNYLAWYQQKLGEAPKLLIYKTNSLQTGIPSRFSGSGSGTDYTLTLSSLHSEDLATYYCCQYNDGYTFGAGTKLELK
2. C1.861 (antibody, V domains shown) VH: EVQLKESGPGLVQPSQTLSLTCTVSGFSLTSNGVTWVRQPPGKGLEWIAAISSGGNIYYNSAVKSRLSISRDTSKSQVFLKMNSLQTEDTAIYFCTRARGTTTAYVMDAWGQGASVTVSS VL: DVVLTQSPSSLAVSAGETVTINCKSSQSLLYSGNQKNYLAWYQQKPGQSPKLLIYWASTRQSGVPDRFIGSGSGTDFTLTISSVQAEDLAIYYCQQYYDVLMNMFGAGTKLEIK

1: 8.11; 2: 7.83

The values you see were collected from patent US20230272117A1.
